Tested on: MDA-MB-231
Assay: Antiproliferative activity against human MDA-MB-231 cells assessed as cell viability incubated for 48 hrs by MTT assay
Type: functional, cell-based
Conditions: MDA-MB-231, 48 h
quantityMeasured: pIC50
Numbers only, as −log10 of the molar value.

Lookup result for CN(C)C(=O)c1cc2cnc(Nc3ccc(C(=O)N4CCC(c5nc6c(C(N)=O)cccc6[nH]5)C4)cc3Cl)nc2n1C1CCCC1 (stereo unspecified) ; measured pIC50: 5.80

---

Assay: Cytotoxicity against human MCF-10A cells assessed as cell viability incubated for 48 hrs by MTT assay
Type: toxicity, cell-based
quantityMeasured: IC50 at 48 h (µM)
Give bare numbers, in µM.

Lookup result for CN(C)C(=O)c1cc2cnc(Nc3ccc(C(=O)N4CCC(c5nc6c(C(N)=O)cccc6[nH]5)C4)cc3Cl)nc2n1C1CCCC1 (stereo unspecified) ; measured IC50 at 48 h: 0.93
